molecular target: Serine/threonine-protein kinase SIK2 (Homo sapiens); conditions: at 1 µM;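 further: mean inhibition of SNF1LK2 (QIK) kinase activity, from the GSK PKIS screening panel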
List of inhibition values.
METRIC NAME: inhibition (%)

1) NC(=O)c1cc(-c2ccncc2)cc(-c2ccccc2)c1N    14.2
2) COc1cc2ncn(-c3cc(OCc4cccs4)c(C(N)=O)s3)c2cc1OC    24.9
3) COc1cc(Nc2ncc(-c3ccccc3)o2)cc(OC)c1OC    30.6
4) N#Cc1ccc(Oc2nccc(-c3c(-c4ccc(F)cc4)ncn3C3CCNCC3)n2)cc1    9.93
5) CCc1cccc(CC)c1/C=C/c1cncc(C(=O)NC)c1    -1.33
6) NS(=O)(=O)c1ccc(N/N=C2\C(=O)Nc3ccc(-c4cnco4)cc32)cc1    7.34
7) Fc1ccc(-c2ncn(C3CCNCC3)c2-c2ccnc(Oc3ccc4c(c3)OCO4)n2)cc1    18.5
8) Fc1ccc(-c2ncn(CCCN3CCOCC3)c2-c2ccncc2)cc1    2.48
9) O=C(Nc1n[nH]c2cc(-c3ccccc3)ccc12)C1CC1    12.8
10) COc1ccc2cc(-c3c(-c4ccncc4)nc(-c4ccc(S(C)(=O)=O)cc4C)n3C)ccc2c1    10.8
11) O=C1Nc2ccccc2/C1=C/Nc1ccc(-n2cncn2)cc1    11.6
12) CS(=O)(=O)CCNCc1cc(-c2cc3c(Nc4ccc(OCc5cccc(F)c5)c(Cl)c4)ncnc3s2)cs1    0.61
13) COc1cc2ncn(-c3cc(OCCc4ccccc4)c(C(N)=O)s3)c2cc1OC    3.75
14) COc1cc(Nc2ncc3c(C)nc(-c4cccc(Oc5ccccc5)c4)n3n2)cc(OC)c1OC    0.43
15) Cc1nnc(-c2ccc(C)c(-c3ccc(C(=O)NCc4ccc(Cl)cc4)cc3)c2)o1    11.4
16) CN(C)CCOc1ccc(-c2cc(-c3ccc4c(c3)CCC4=NO)c(-c3ccncc3)o2)cc1    -1.24
17) COc1cc(C)c(N(C)C(=O)CN(C)C)cc1Nc1nc(Nc2cccc(F)c2C(N)=O)c2cc[nH]c2n1    2.04
18) COc1ccc(C2=C(N3CCc4ccccc43)C(=O)NC2=O)cc1    11.3
19) Cc1ccc(C(=O)NC2CCC2)cc1-c1ccc(C(=O)NCC2CC2)cc1    0.45
20) NS(=O)(=O)c1ccc(Nc2cc(-c3ccc(O)c(F)c3)n[nH]2)cc1    8.46
21) NC(=O)c1ccc(Oc2nccc(-c3c(-c4ccc(F)cc4)ncn3C3CCNCC3)n2)cc1    3.63
